Values from PubChem BioAssay

run description: small-molecule binders of probe aNOTCH3, primary screen, biochemical, small-molecule microarray, 635/667 nm fluorescence (AID 1120);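 further: probe is a biotin-tagged antibody raised against NOTCH3 rather than NOTCH3 protein; score merges spot fluorescence near 667 nm with spot signal to noise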
stated conditions: higher = more signal
// thresholds for composite z-score classes: band 1: < -0.1; band 2: ≥ -0.1 and < 0.2; band 3: ≥ 0.2

molecule | answer label
CC(C)C[C@@H]1NC(=O)[C@@H]2C[C@H](C(=O)NCCCCN(C)C)[C@H](c3cccc(OCCO)c3)N2C1=O | band 1
CC(C)Cc1ccc(CN2CC[C@@H](NC(=O)Nc3ccccc3)C2)cc1 | band 1
COCCCNC(=O)[C@]1(CCS(=O)(=O)c2ccccc2)N=C(c2ccc(OCCCO)cc2)O[C@@H]1c1ccccc1CN=[N+]=[N-] | band 3
O=C1NC(=O)C2C1C=CC(C(O)CCc1ccccc1)N2Nc1ccc(Cl)cc1Cl (stereo not drawn) | band 1
C[C@]1(C(=O)NC2CC2)c2ccccc2C(=O)N(Cc2ccccc2)[C@H]1c1ccc(CO)cc1 | band 1
CN(C)C(=O)[C@@]1(Cc2ccccc2CN=[N+]=[N-])N=C(c2ccc(OCCCO)cc2)O[C@H]1c1ccccc1CN=[N+]=[N-] | band 3
C=CCN1Cc2ccccc2[C@H]2OC(c3ccc(OCCCO)cc3)=N[C@@]2(CC=C)C1=O | band 2
COCCCNC(=O)[C@@]1(Sc2ccc(C)cc2)CC(=O)N(C2CCCCC2)[C@@H]1c1ccc(CO)cc1 | band 1
CCOC(=O)c1ccc(NC(=O)O[C@H]2[C@H](OC(=O)Nc3ccc4c(c3)OCO4)[C@@H](OC(=O)Nc3ccc4c(c3)OCO4)[C@@H](OC)O[C@@H]2CO)cc1 | band 3
COC(=O)c1c(CC[C@@H](CO)NC(=O)N[C@H](Cn2cc(C3(O)CCCCC3)nn2)C(C)C)oc(C(C)=O)c1C(=O)OC | band 2
CC(CO)N1C(=O)[C@@H]2[C@H]3C(=O)OCC=C[C@H]3OC23C=CCN(CCN2CCOCC2)C(=O)[C@@H]13 (stereo partly drawn) | band 1
CC(C)C[C@@H]1NC(=O)[C@@H]2C[C@H](C(=O)NCCCCCN)[C@H](c3ccc(O)cc3)N2C1=O | band 1
CCOC(=O)C[C@H]1[C@H](OC(=O)c2cc3ccccc3oc2=O)[C@@H](NC(=O)c2ccc(-c3ccccc3)cc2)c2cc(OCCCO)ccc2N1C(=O)c1ccccc1 | band 3
COc1ccc(NC(=O)O[C@H]2[C@H](OC(=O)Nc3ccccc3)[C@H](OC(=O)Nc3ccccc3)[C@@H](OC)O[C@@H]2CO)cc1 | band 3
[N-]=[N+]=NCc1ccccc1C[C@]1(C(N)=O)N=C(c2ccc(OCCCO)cc2)O[C@H]1c1ccccc1 | band 2
O=C1NC(=O)C2C1C=CC(C(O)c1ccco1)N2Nc1ccccn1 (stereo not drawn) | band 1

* * *

measured on: Carbonic anhydrase 2 (Homo sapiens)
run description: CAII small-molecule binders, profiling panel, biochemical, small-molecule microarray, Alexa647-labelled CAII (AID 1122)
stated conditions: CAII-A647 binding fluorescence, higher = more signal
Respond with MET for composite z-score values of 0.6 and above, NOT MET for values below.

compound | answer label
CCOC(=O)C[C@H]1[C@H](OC(=O)c2ccccc2-c2ccccc2)[C@@H](NC(=O)C2CCCCC2)c2cc(OCCCO)ccc2N1C(=O)Cc1ccc(OC)cc1 | NOT MET
[N-]=[N+]=Nc1ccccc1[C@H]1OC(c2ccc(OCCCO)cc2)=N[C@@]1(Cc1ccccc1)C(=O)N1CCCCC1 | NOT MET
COCCOC(=O)N1C(=O)[C@@]2(c3cc(C#CC4=CCCCC4)ccc31)[C@H](c1ccc(OCCO)cc1)N1[C@H](c3ccccc3)[C@H](c3ccccc3)OC(=O)[C@H]1[C@@H]2C(=O)NC[C@H](O)c1ccccc1 | NOT MET
O=C(NCC(F)(F)F)[C@@H]1c2ccccc2C(=O)N(Cc2ccc(OC(F)(F)F)cc2)[C@H]1c1ccc(CO)cc1 | MET
COC(=O)[C@@]1(Cc2ccc(OC)cc2)[C@H]2c3cc(C(=O)N4CCCC4)n(Cc4cccc5ccccc45)c3C[C@H]2CN1C(=O)c1ccccc1 | MET
COCCOC(=O)N1C(=O)[C@@]2(c3cc(C#Cc4ccc(OC)cc4)ccc31)[C@H](c1ccccc1OCCO)N1[C@H](c3ccccc3)[C@H](c3ccccc3)OC(=O)[C@H]1[C@@H]2C(=O)N1CCCCCCC1 | MET
CN(C)C(=O)[C@@]1(CCS(=O)(=O)c2ccccc2)N=C(c2ccc(OCCCO)cc2)O[C@H]1c1ccccc1 | MET
C=C(/C(=C/C[C@H](OC(=O)c1ccncc1)c1ccc(CO)o1)c1cc(C(=O)OC)ccc1OC)C(C)C | NOT MET
COc1cc2c(cc1O)C(C)N(Cc1ccc([N+](=O)[O-])o1)CC2 (stereo not drawn) | NOT MET
CC(CO)N1C(=O)[C@@H]2[C@H]3C(=O)OCC=C[C@H]3OC23C=CCN(Cc2ccccc2)C(=O)[C@@H]13 (stereo partly drawn) | MET
COc1ccc(NC(=O)O[C@H]2[C@H](OC(=O)Nc3ccccc3)[C@@H](OC(=O)Nc3ccccc3)[C@@H](OC)O[C@@H]2CO)cc1 | MET
